Assay: repeated dose toxicity study (26-week)
Conditions: rat, in vivo; rats, 26-week repeated dose; Biophytis, unpublished data; read-out: No Observed Adverse Effect Level (NOAEL)
ENDPOINT_LABEL: NOAEL at 26 week (mg/kg)
State just the number; it will be interpreted in mg/kg.

Notebook: CC(C)(O)CC[C@@H](O)[C@](C)(O)[C@H]1CC[C@@]2(O)C3=CC(=O)[C@@H]4C[C@@H](O)[C@@H](O)C[C@]4(C)[C@H]3CC[C@]12C [20E] , NOAEL at 26 week read as 1000

Source listed as paper PMC8146789.
